Test system: Plasmodium falciparum
TEST DESCRIPTION: GSK_TCMDC: Inhibition of Plasmodium falciparum Dd2 in whole red blood cells, using parasite LDH activity as an index of growth. Test compounds present at 2uM
Type: functional
This listing pairs compounds with measured Inhibition.
Report only the number, with the unit % understood.

INSERT INTO results (compound, unit_of_measurement, numeric_result) VALUES
  ('COc1ccc2c(=NN=Cc3cccc(Cl)c3)cc(C)[nH]c2c1', '%', 99);

So what Inhibition did COc1ccccc1-c1cc(C(=O)N2CCN(S(=O)(=O)c3ccc(C)cc3)CC2)[nH]n1 get with Plasmodium falciparum?
88

Find Inhibition (Plasmodium falciparum) for the entry O=C(Nc1cccc(-c2ccc(-c3nc4cc(C(F)(F)F)ccc4[nH]3)cc2)c1)c1ccncc1
90

Hi! What's the reported Inhibition for Br.N=c1n(CCN2CCCCC2)c2ccccc2n1CC(=O)c1cccc([N+](=O)[O-])c1 on Plasmodium falciparum?
0

Requested read-out Inhibition, target or system Plasmodium falciparum, entry CCCCCC(C)N/C(=N/c1ccccc1Br)Nc1ccc(C#N)cc1O (stereo not given)
95

// map CC1CCN(CCNC(=O)c2ccc3c(=O)n(Cc4ccc(Cl)cc4)c(=S)[nH]c3c2)CC1 to recorded Inhibition (system: Plasmodium falciparum)
75

Quick check: Inhibition on Plasmodium falciparum, item N#Cc1ccc2[nH]c(-c3ccccc3)nc2c1 ?
1
